experiment: Cytotoxicity against human erythrocytes assessed as hemolytic activity after 60 mins; assay type: cell-based, Erythrocyte; conditions: read-out: HD50
property measured: HC50 at 1 h (µM)
Give bare numbers, in µM.

Worked cases, HC50 at 1 h given:
compound_structure_string=C[C@@H]1CC[C@@]2(OC1)O[C@H]1C[C@H]3[C@@H]4CC=C5C[C@@H](O[C@@H]6O[C@H](CO)[C@@H](O[C@H]7O[C@H](C)[C@@H](OCCNC(=O)OCC8c9ccccc9-c9ccccc98)[C@H](O)[C@@H]7O)[C@H](O)[C@H]6O[C@H]6O[C@H](C)[C@@H](O)[C@H](O)[C@@H]6O)CC[C@]5(C)[C@H]4CC[C@]3(C)[C@H]1[C@@H]2C display_unit=µM quantitative_result=3
compound_structure_string=C[C@@H]1CC[C@@]2(OC1)O[C@H]1C[C@H]3[C@@H]4CC=C5C[C@@H](O[C@@H]6O[C@H](CNC(=O)OCC7c8ccccc8-c8ccccc87)[C@@H](O[C@H]7O[C@H](C)[C@@H](O)[C@H](O)[C@@H]7O)[C@H](O)[C@H]6O[C@H]6O[C@H](C)[C@@H](O)[C@H](O)[C@@H]6O)CC[C@]5(C)[C@H]4CC[C@]3(C)[C@H]1[C@@H]2C display_unit=µM quantitative_result=9

With those in mind, consider the next molecule.
Request the reported HC50 at 1 h associated with C[C@@H]1CC[C@@]2(OC1)O[C@H]1C[C@H]3[C@@H]4CC=C5C[C@@H](O[C@@H]6O[C@H](CO[C@@H]7O[C@@H](C)[C@H](O)[C@@H](O)[C@H]7O)[C@@H](O)[C@H](O)[C@H]6O)CC[C@]5(C)[C@H]4CC[C@]3(C)[C@H]1[C@@H]2C
28.6

---

assay: Cytotoxicity against human erythrocytes assessed as hemolytic activity after 60 mins; assay type: cell-based, Erythrocyte; conditions: read-out: HD50
property measured: HC50 at 1 h (nM)
One number for each entry, in nM.

Request the reported HC50 at 1 h associated with C[C@@H]1CC[C@@]2(OC1)O[C@H]1C[C@H]3[C@@H]4CC=C5C[C@@H](O[C@@H]6O[C@H](CO)[C@@H](O[C@H]7O[C@H](C)[C@@H](OCCNC(=O)c8ccccc8I)[C@H](O)[C@@H]7O)[C@H](O)[C@H]6O[C@H]6O[C@H](C)[C@@H](O)[C@H](O)[C@@H]6O)CC[C@]5(C)[C@H]4CC[C@]3(C)[C@H]1[C@@H]2C
1700

---

assay: Cytotoxicity against human erythrocytes assessed as hemolytic activity after 60 mins; format: cell-based, Erythrocyte; details: read-out: HD50
property measured: HC50 at 1 h

Worked cases, HC50 at 1 h given:
compound_structure_string=C/C=C/C=C/C(=O)NC[C@H]1O[C@@H](O[C@H]2CC[C@@]3(C)C(=CC[C@H]4[C@@H]5C[C@@H]6O[C@]7(CC[C@@H](C)CO7)[C@@H](C)[C@@H]6[C@@]5(C)CC[C@@H]43)C2)[C@H](O[C@H]2O[C@H](C)[C@@H](O)[C@H](O)[C@@H]2O)[C@@H](O)[C@@H]1O[C@H]1O[C@H](C)[C@@H](O)[C@H](O)[C@@H]1O result="9.3 µM"
compound_structure_string=COc1ccc(C(=O)NCCO[C@H]2[C@H](O)[C@H](O)[C@@H](O[C@H]3[C@H](O)[C@@H](O[C@H]4O[C@H](C)[C@@H](O)[C@H](O)[C@@H]4O)[C@H](O[C@H]4CC[C@@]5(C)C(=CC[C@H]6[C@@H]7C[C@@H]8O[C@]9(CC[C@@H](C)CO9)[C@@H](C)[C@@H]8[C@@]7(C)CC[C@@H]65)C4)O[C@@H]3CO)O[C@@H]2C)cc1 result="4.5 µM"

With those in mind, consider the next compound.
Request the reported HC50 at 1 h associated with COc1ccc(C(=O)NC[C@H]2O[C@@H](O[C@H]3CC[C@@]4(C)C(=CC[C@H]5[C@@H]6C[C@@H]7O[C@]8(CC[C@@H](C)CO8)[C@@H](C)[C@@H]7[C@@]6(C)CC[C@@H]54)C3)[C@H](O[C@H]3O[C@H](C)[C@@H](O)[C@H](O)[C@@H]3O)[C@@H](O)[C@@H]2O[C@H]2O[C@H](C)[C@@H](O)[C@H](O)[C@@H]2O)cc1
9.5 µM

---

test: Cytotoxicity against human erythrocytes assessed as hemolytic activity after 60 mins; format: cell-based, Erythrocyte; conditions: read-out: HD50
I'd be grateful if you could share measured HC50 at 1 h for these entries.

compound="CO[C@]1(CCC(C)CO[C@@H]2O[C@H](CO)[C@@H](O)[C@H](O)[C@H]2O)O[C@H]2C[C@H]3[C@@H]4CC=C5C[C@@H](O[C@@H]6O[C@H](CO)[C@@H](O[C@H]7O[C@H](C)[C@@H](O)[C@H](O)[C@@H]7O)[C@H](O)[C@H]6O[C@H]6O[C@H](C)[C@@H](O)[C@H](O)[C@@H]6O)[C@H](O)C[C@]5(C)[C@H]4CC[C@]3(C)[C@H]2[C@@H]1C (stereo not given in full)" result="> 100 µM"

I would be grateful if you could provide HC50 at 1 h for each of the following entries.
1. C[C@@H]1CC[C@@]2(OC1)O[C@H]1C[C@H]3[C@@H]4CC=C5C[C@@H](O[C@@H]6O[C@H](CNC(=O)COc7ccccc7)[C@@H](O[C@H]7O[C@H](C)[C@@H](O)[C@H](O)[C@@H]7O)[C@H](O)[C@H]6O[C@H]6O[C@H](C)[C@@H](O)[C@H](O)[C@@H]6O)CC[C@]5(C)[C@H]4CC[C@]3(C)[C@H]1[C@@H]2C
2. C[C@@H]1CC[C@@]2(OC1)O[C@H]1C[C@H]3[C@@H]4CC=C5C[C@@H](O[C@@H]6O[C@H](CNC(=O)c7ccccc7I)[C@@H](O[C@H]7O[C@H](C)[C@@H](O)[C@H](O)[C@@H]7O)[C@H](O)[C@H]6O[C@H]6O[C@H](C)[C@@H](O)[C@H](O)[C@@H]6O)CC[C@]5(C)[C@H]4CC[C@]3(C)[C@H]1[C@@H]2C
3. C/C=C/C=C/C(=O)NCCO[C@H]1[C@H](O)[C@H](O)[C@@H](O[C@H]2[C@H](O)[C@@H](O[C@H]3O[C@H](C)[C@@H](O)[C@H](O)[C@@H]3O)[C@H](O[C@H]3CC[C@@]4(C)C(=CC[C@H]5[C@@H]6C[C@@H]7O[C@]8(CC[C@@H](C)CO8)[C@@H](C)[C@@H]7[C@@]6(C)CC[C@@H]54)C3)O[C@@H]2CO)O[C@@H]1C

["9.4 µM", "7.4 µM", "1.6 µM"]

Request the reported HC50 at 1 h associated with C[C@@H]1CC[C@@]2(OC1)O[C@H]1C[C@H]3[C@@H]4CC[C@H]5C[C@@H](O[C@@H]6O[C@H](CO)[C@H](O[C@H]7O[C@H](C)[C@@H](O)[C@H](O)[C@@H]7O)[C@H](O)[C@H]6O[C@@H]6O[C@@H](C)[C@H](O)[C@@H](O)[C@H]6O)[C@H](O)C[C@]5(C)[C@H]4CC[C@]3(C)[C@H]1[C@@H]2C
9.6 µM

---

test: Cytotoxicity against human erythrocytes assessed as hemolytic activity at 40 ug/ml after 60 mins; assay type: cell-based, Erythrocyte; settings: read-out: Activity
property measured: hemolysis at 1 h, 40 ug/ml (%)
Numbers only, in %.

Request the reported hemolysis at 1 h, 40 ug/ml associated with C[C@@H]1CC[C@@]2(OC1)O[C@H]1C[C@H]3[C@@H]4CC=C5C[C@@H](O[C@@H]6O[C@H](CO)[C@@H](O)[C@H](O[C@@H]7O[C@@H](C)[C@H](O)[C@@H](O)[C@H]7O)[C@H]6O)CC[C@]5(C)[C@H]4CC[C@]3(C)[C@H]1[C@@H]2C
15

---

test: Cytotoxicity against human erythrocytes assessed as hemolytic activity at 50 ug/ml after 60 mins; assay type: cell-based, Erythrocyte; settings: read-out: Activity
property measured: hemolysis at 1 h, 50 ug/ml (%)
Answers are plain numbers, in %.

Request the reported hemolysis at 1 h, 50 ug/ml associated with CC(=O)O[C@@H]1[C@@H](O)[C@@H](O)[C@H](OC[C@H]2O[C@@H](O[C@H]3CC[C@@]4(C)C(=CC[C@H]5[C@@H]6C[C@@H]7O[C@]8(CC[C@@H](C)CO8)[C@@H](C)[C@@H]7[C@@]6(C)CC[C@@H]54)C3)[C@H](O)[C@@H](O)[C@@H]2O)O[C@H]1C
12

---

I'd be grateful if you could share measured HC50 at 1 h for these entries.
assay: Cytotoxicity against human erythrocytes assessed as hemolytic activity after 60 mins; assay type: cell-based, Erythrocyte; conditions: read-out: HD50
Answers are plain numbers, in µM.

compound_structure_string=C[C@@H]1CC[C@@]2(OC1)O[C@H]1C[C@H]3[C@@H]4CC=C5C[C@@H](O[C@@H]6O[C@H](CO)[C@@H](O)[C@H](O)[C@H]6O[C@@H]6O[C@@H](C)[C@H](O)[C@@H](O)[C@H]6O)CC[C@]5(C)[C@H]4CC[C@]3(C)[C@H]1[C@@H]2C quantitative_result=21.6

With those in mind, consider the next molecule.
Request the reported HC50 at 1 h associated with CCCC(=O)O[C@H]1[C@H](O)[C@H](O)[C@@H](O[C@H]2[C@H](O)[C@@H](O[C@H]3O[C@H](C)[C@@H](O)[C@H](O)[C@@H]3O)[C@H](O[C@H]3CC[C@@]4(C)C(=CC[C@H]5[C@@H]6C[C@@H]7O[C@]8(CC[C@@H](C)CO8)[C@@H](C)[C@@H]7[C@@]6(C)CC[C@@H]54)C3)O[C@@H]2CO)O[C@@H]1C
2.8
